Where do these numbers come from? They come from patent US20050090505A1.

# target-desc: airway epithelial sodium currents (sodium channel) (UniProt A0A8I3MKE6+A0A8I3Q679+Q95165)
# protocol-details: Sodium channel blocking activity: inhibition of short circuit current (ISC) in airway epithelial monolayers mounted in Ussing chambers
# Format: cell-based, human, dog, sheep or rodent
# study-conditions: Alaphatic Pyrazinoylguanidines; relative potency for PSA 4022 = 100 using EC50 from PSA 4022 in same run
Where a name gives a salt, the structure may show the parent alone.
measured-property: Fold Amiloride** (PSA 4022 = 100)

Here's what some known entries look like.
molecule	result
N=C(NCCCCCCCCCCN)NC(=O)c1nc(Cl)c(N)nc1N [compound 19487, dihydrochloride]	37 ± 1
N=C(NCCCCCCCCN)NC(=O)c1nc(Cl)c(N)nc1N [compound 19336, dihydrochloride]	12 ± 3
CC(C)(C)OC(=O)NCCCCCCCCCCCCNC(=N)NC(=O)c1nc(Cl)c(N)nc1N	7

Attention now turns to another entry.
Task item: Give the observed Fold Amiloride** (PSA 4022 = 100) of N=C(N)NCCCCCCCCNC(=N)NC(=O)c1nc(Cl)c(N)nc1N [compound 19604, dihydrochloride] for airway epithelial sodium currents (sodium channel) (UniProt A0A8I3MKE6+A0A8I3Q679+Q95165).
Reply: 63 ± 61
